Literature log10 IC50 values, system: GST-Xa-hAAK1 (Homo sapiens (Human), UniProt Q2M2I8).
Sequence (Q2M2I8 whole entry): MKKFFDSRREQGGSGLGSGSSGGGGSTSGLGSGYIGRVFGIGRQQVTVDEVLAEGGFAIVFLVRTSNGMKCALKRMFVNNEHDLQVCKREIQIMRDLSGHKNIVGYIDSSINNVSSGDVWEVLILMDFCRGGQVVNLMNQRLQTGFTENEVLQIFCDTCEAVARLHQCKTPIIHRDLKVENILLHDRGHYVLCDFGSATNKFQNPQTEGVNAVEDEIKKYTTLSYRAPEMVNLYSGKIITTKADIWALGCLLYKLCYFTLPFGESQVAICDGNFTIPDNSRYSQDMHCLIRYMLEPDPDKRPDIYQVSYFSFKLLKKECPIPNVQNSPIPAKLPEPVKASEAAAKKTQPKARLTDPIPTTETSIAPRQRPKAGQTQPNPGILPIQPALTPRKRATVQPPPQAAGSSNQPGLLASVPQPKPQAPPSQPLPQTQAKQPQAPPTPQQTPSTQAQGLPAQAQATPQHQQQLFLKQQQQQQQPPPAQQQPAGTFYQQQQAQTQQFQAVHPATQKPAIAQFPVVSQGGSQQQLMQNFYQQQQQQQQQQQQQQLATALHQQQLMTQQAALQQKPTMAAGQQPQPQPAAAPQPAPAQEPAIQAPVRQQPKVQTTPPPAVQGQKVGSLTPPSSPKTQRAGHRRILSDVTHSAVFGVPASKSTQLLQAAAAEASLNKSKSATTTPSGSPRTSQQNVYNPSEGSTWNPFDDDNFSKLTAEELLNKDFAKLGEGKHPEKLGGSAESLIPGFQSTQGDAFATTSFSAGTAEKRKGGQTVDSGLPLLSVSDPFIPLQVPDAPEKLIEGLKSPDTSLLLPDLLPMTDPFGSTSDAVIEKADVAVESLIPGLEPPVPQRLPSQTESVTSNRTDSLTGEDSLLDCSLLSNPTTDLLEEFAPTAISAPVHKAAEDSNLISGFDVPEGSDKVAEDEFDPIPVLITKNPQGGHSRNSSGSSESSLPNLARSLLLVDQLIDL
Short version: log10 scale, IC50, nM.

Study these solved cases before continuing.
Prompt: State the measured log10 IC50 (GST-Xa-hAAK1 (Homo sapiens (Human), UniProt Q2M2I8)) of CC(C)C[C@](C)(N)COc1cnc(-c2ccnc3ccccc23)cc1Cl
Response: -0.01

Prompt: State the measured log10 IC50 (GST-Xa-hAAK1 (Homo sapiens (Human), UniProt Q2M2I8)) of CC(C)C[C@](C)(N)COc1ccc(-c2ccnc3cc(F)cc(F)c23)nc1C(F)F
Response: 0.15

Prompt: State the measured log10 IC50 (GST-Xa-hAAK1 (Homo sapiens (Human), UniProt Q2M2I8)) of COC(=O)Nc1cc2c(cn1)OCc1c-2ccc(OC[C@@](C)(N)CC(C)C)c1Cl
Response: -0.09

Prompt: State the measured log10 IC50 (GST-Xa-hAAK1 (Homo sapiens (Human), UniProt Q2M2I8)) of Cc1cc(-c2ccc(OC[C@@](C)(N)CC(C)C)c(C(F)(F)F)c2)c2ccccc2n1
Response: 1.40

Prompt: State the measured log10 IC50 (GST-Xa-hAAK1 (Homo sapiens (Human), UniProt Q2M2I8)) of CC(C)C[C@H](N)COc1ccc2c(c1)c(=O)n(C)c1cnccc21
Response: 1.57

Prompt: State the measured log10 IC50 (GST-Xa-hAAK1 (Homo sapiens (Human), UniProt Q2M2I8)) of Cc1nccc2c1[nH]c(=O)c1cc(OC[C@@](C)(N)CC(C)C)c(Cl)cc12
Response: 2.79

Prompt: State the measured log10 IC50 (GST-Xa-hAAK1 (Homo sapiens (Human), UniProt Q2M2I8)) of CNc1cc(N[C@H]2CC[C@H](N)CC2)nn2c(C(=O)Nc3cccc(-c4nnn(C(C)C)n4)c3)cnc12
Response: 0.90

Prompt: State the measured log10 IC50 (GST-Xa-hAAK1 (Homo sapiens (Human), UniProt Q2M2I8)) of COC(=O)Nc1cc(-c2ccc(OC[C@@](C)(N)CC(C)C)c(C)n2)c(F)cn1
Response: 1.76

Prompt: State the measured log10 IC50 (GST-Xa-hAAK1 (Homo sapiens (Human), UniProt Q2M2I8)) of Cc1cc(-c2ccnc(F)c2)ncc1OC[C@@](C)(N)CC(C)C
Response: 1.41

Prompt: State the measured log10 IC50 (GST-Xa-hAAK1 (Homo sapiens (Human), UniProt Q2M2I8)) of Cc1nccc(-c2cnc(OC[C@](C)(N)CC(C)C)c(C)c2)n1
Response: 2.98

Further cases:
Prompt: State the measured log10 IC50 (GST-Xa-hAAK1 (Homo sapiens (Human), UniProt Q2M2I8)) of CC(C)C[C@](C)(N)COc1ccc(C2=CCOCC2)cc1C(F)(F)F
Response: 2.29

Prompt: State the measured log10 IC50 (GST-Xa-hAAK1 (Homo sapiens (Human), UniProt Q2M2I8)) of Cc1cc(-c2ccnc3cc(F)ccc23)cnc1OC[C@@](C)(N)CC(C)C
Response: 0.23
